Source listed as PubChem BioAssay (NCI).

Tested on: MDA-MB-468 breast
Experiment: NCI tumour cell line growth inhibition, 48 h; in the data active = GI50 below about 0.43 µM; inactive = the rest
*1 amine or outer side, *2 acyl side, *3 side chain or, on linkers, in order; H or OH if unused. Where a SMILES comes first, the peptide text is derived from it. Bridges are numbered along the chain shown (N, C = ends). [ ]: non-standard residue; d: D form. The star is where a group is joined. Phe(3-Me) = Cc1cccc(C[C@H](N)C(=O)O)c1; NH(4-Cl-2-F-phenyl) = Fc1cc(Cl)ccc1N*; Pro(4R-Me) = C[C@H]1CN[C@H](C(=O)O)C1; Hyp = O=C(O)[C@@H]1C[C@@H](O)CN1; aThr = C[C@H](O)[C@H](N)C(=O)O; Pip = O=C(O)[C@@H]1CCCCN1; CO = O=C([*:1])[*:2]
Give one outcome, nothing more. List: active, inactive

QUERY: Could you kindly confirm the outcome this assay logged for `COc1ccc(C(=O)c2cc(OC)c(OC)c(OC)c2)cc1O` ?
RESULT: active

QUERY: Identify the outcome logged in this assay for the molecule shown: `Cc1nc(NC(=S)Nc2ccc(F)cc2)sc1C(=O)NNC(=S)Nc1ccc(F)cc1`
RESULT: inactive

QUERY: Recorded test call requested for Cc1cccc(C[C@H](NC(=O)Nc2ccc(Cl)cc2F)C(=O)N[C@@H]2C(=O)N3C[C@H](O)C[C@H]3C(=O)N3CCCC[C@H]3C(=O)N[C@@H](C)C(=O)N3C[C@H](C)C[C@H]3C(=O)O[C@H]2C)c1 ({NH(4-Cl-2-F-phenyl)-CO}-[Phe(3-Me)][aThr][Hyp][Pip]A[Pro(4R-Me)]; ester 2-C)
RESULT: active

QUERY: // outcome(item) with item = `Cc1nn2c(/C=C3/C(=O)Nc4ccc(Cl)cc43)c(-c3ccccc3)nc2s1`
RESULT: inactive

---

Provide the reported log10(TGI) of each item.
Test system: MDA-MB-468 breast
Test: NCI tumour cell line growth inhibition, 48 h
# values: log10(TGI), units µM

QUERY: Param readout = log10(TGI); param system = MDA-MB-468 breast; param query = N#CSCC1CC(O)(c2ccccc2)C(c2ccccc2)C(c2ccc(F)cc2)O1 (configuration not stated) ; response: value
RESULT: 1.12

QUERY: Value wanted: log10(TGI) (MDA-MB-468 breast) of entry `O=C(CS(=O)(=O)c1oc(-c2ccc(Cl)cc2)nc1S(=O)(=O)c1ccccc1)N1CCCC1`
RESULT: 0.40

QUERY: Write down the reported log10(TGI) of CCC(C)/C=C(C)/C=C/C(=O)c1c(O)c(-c2ccc(O)cc2)c[nH]c1=O (configuration not stated) , test system: MDA-MB-468 breast.
RESULT: 0.89

QUERY: Recorded log10(TGI) for `O=C(Nc1ccncc1)C(=O)c1cn(S(=O)(=O)c2ccccc2F)c2ccccc12` with MDA-MB-468 breast, please?
RESULT: 0.99

QUERY: Request: log10(TGI), test system MDA-MB-468 breast, entry `COc1ccc(C(=O)c2cc(OC)c(OC)c(OC)c2)cc1O`
RESULT: -0.11

QUERY: Request: log10(TGI), test system MDA-MB-468 breast, entry `CCc1nc2ccc(Cc3ccc(C(=O)NO)cc3)cc2c(=O)n1CCc1ccccc1`
RESULT: 0.47
